- method.description: Fluorescence quantum yield
- Format: physicochemical
- setup.conditions: CHCl3; Reference: S-13 with Φ=1.00
Exercise: for every item that follows, state its recorded Fluorescence quantum yield.

For the molecule COC(=O)CCN1C(=CC=CC2=[N+](CCC(=O)OC)c3ccc4ccccc4c3C2(C)C)C(C)(C)c2c1ccc1ccccc21.[Br-] [Dye 3h] , what Fluorescence quantum yield is on record? 0.24

For the molecule CCOC(=O)CCCCCN1/C(=C\C=C\C2=[N+](CCCCCC(=O)OCC)c3ccc4c(S(=O)(=O)O)cccc4c3C2(C)C)C(C)(C)c2c1ccc1c(S(=O)(=O)O)cccc21.[Br-] [Dye 6g] , what Fluorescence quantum yield is on record? 0.22

For the molecule CC1(C)C(=CC=CC2=[N+](CCCCCCCCCCCC(=O)O)c3ccc4ccccc4c3C2(C)C)N(CCCCCCCCCCCC(=O)O)c2ccc3ccccc3c21.[Br-] [Dye 3g] , what Fluorescence quantum yield is on record? 0.35

For the molecule COC(=O)CCCCCCCCCN1C(=CC=CC2=[N+](CCCCCCCCCC(=O)OC)c3ccc4ccccc4c3C2(C)C)C(C)(C)c2c1ccc1ccccc21.[Br-] [Dye 3j] , what Fluorescence quantum yield is on record? 0.47
